type: in vivo, Sprague Dawley rats; settings: 0 to 48 h; Fibersol-2 group (1.0 g/d/rat, two weeks); plasma after intragastric ginsenoside Rb1 100 mg/kg; mean ± SE
readout: AUC

Field request: AUC | item: CC(C)=CCC[C@](C)(O[C@@H]1O[C@H](CO)[C@@H](O)[C@H](O)[C@H]1O)[C@H]1CC[C@]2(C)[C@@H]1[C@H](O)C[C@@H]1[C@@]3(C)CC[C@H](O[C@@H]4O[C@H](CO)[C@@H](O)[C@H](O)[C@H]4O)C(C)(C)[C@@H]3CC[C@]12C [F2, ginsenoside F2] 153.78 ± 36.00^ab ng/ml∗h

The reported numbers originate from paper PMC8020290.
